# log10(MIC) listing for each entry below
- System: Methicillin resistant Staphylococcus epidermidis (MRSE) ATCC 35984 NRS101
- Protocol: Antibacterial MIC assay, serial dilution
- Format: cell-based
- Condition Info: Staphylococcus epidermidis, read-out: MIC Methicillin resistant Staphylococcus epidermidis (MRSE) ATCC 35984 NRS101
Record value = log10 of MIC given in µg/mL.

Some solved cases for reference:
CNc1ccc(C(=O)Nc2ccn([C@H]3C=C[C@H](NC(=O)C[C@@H](N)CCN(C)C(=N)N)[C@@H](C(=O)NCCc4ccccc4)O3)c(=O)n2)cc1    0.90
COC(=O)[C@H]1O[C@@H](n2ccc(NC(=O)c3ccc(NC(C)=O)cc3)nc2=O)C=C[C@@H]1NC(=O)C[C@@H](N)CCN(C)C(=N)N    1.81
CN(CC[C@H](N)CC(=O)N[C@H]1C=C[C@H](n2ccc(NC(=O)c3ccc(NC(=O)[C@@](C)(N)CO)cc3)nc2=O)O[C@@H]1C(N)=O)C(=N)N    2.11
CN(CC[C@H](N)CC(=O)N[C@H]1C=C[C@H](n2ccc(NC(=O)c3ccc(N)cc3)nc2=O)O[C@@H]1C(=O)NCCc1ccccc1)C(=N)N [Blastimidine P2]    1.20
COC(=O)[C@H]1O[C@@H](n2ccc(NC(=O)c3ccc(N)cc3)nc2=O)C=C[C@@H]1NC(=O)C[C@@H](N)CCN(C)C(=N)N    1.20
COC(=O)[C@H]1O[C@@H](n2ccc(NC(=O)c3ccc(NC(=O)[C@@](C)(N)CO)cc3)nc2=O)C=C[C@@H]1NC(=O)C[C@@H](N)CCN(C)C(=N)N    1.81
CC(=O)Nc1ccc(C(=O)Nc2ccn([C@H]3C=C[C@H](NC(=O)C[C@@H](N)CCN(C)C(=N)N)[C@@H](C(N)=O)O3)c(=O)n2)cc1    1.81

Continue with the molecule presented below.
Identify measured log10(MIC) associated with CN(CC[C@H](N)CC(=O)N[C@H]1C=C[C@H](n2ccc(N)nc2=O)O[C@@H]1C(N)=O)C(=N)N [Blastimidine A1, P10, reference compound]
1.51
